Entry source: the RNAGym collection of RNA variant scans (doi:10.1126/science.aae0568)

B1: tRNA (parent)
chain: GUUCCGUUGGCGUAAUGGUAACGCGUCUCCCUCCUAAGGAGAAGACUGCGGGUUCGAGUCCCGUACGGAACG

variants of: B1; experiment: yeast fitness relative to wild type (ratio to wild type); higher = fitter; tRNA-Arg(CCU), competitive growth, 37 C, YPD
Variants at the floor of the assay were thinned out.
Entry flag: condition met if yeast fitness reaches 0.7; condition not met if it does not.

// known answers, use as guide
GUCCCGUUGGGGUAAUGGUAACGCGUCUCCCUCCUAAGGAGAAGACUGCGGGUUCGAGUCCCUUACGGAACG [U3C C11G G63U] ... condition not met
GUUCCGUUGGCGUAAUGGUAACGAGUCUGCCUCCUAAGGAGAAGGCUGCGGGUUCGAGUCCCGUACGGAACG [C24A C29G A45G] ... condition not met
GUUCCGUUGGCGUAAUAGUAACGUGUCUCCCUCCUAAGGAGAAGACUGCGGGUUCGAGUCCCGUACGGAACG [G17A C24U] ... condition met
GUUCCGUUGCCGUAAUGGUAAGGCGUCUACCUCCUAAGGAGAAGAUUGCGGGUUCGAGUCCCGUCCGGAACG [G10C C22G C29A C46U A65C] ... condition not met
GUUCCGUUGGCGUCAUGGUAACGCGUCUGCCUCCUAAGGAGAAGACUCCGGGUUCGAGUCCCGUACAGAACG [A14C C29G G48C G67A] ... condition not met
GUUCCGUUGGCGUAGUGGUAACGCGUCUCCCUCCUAAGGAGAAGACUGCGGGUUCGAAUCCCGUACGCAACG [A15G G58A G68C] ... condition not met

Answer whether yeast fitness of GUUCCAGUGGCGUAAUGGUAACGAGCCUCCCUCCUAAGGAGAAGACUGCGGGUUCGAGUCCCGUACGGAACG [G6A U7G C24A U26C] is greater than or equal to 0.7.
condition not met

Param item: GUUCCGUUGGCGUAAUGGCAACGCGUCUCCCUCCUAAGGAGAAGACUGCAGGUUCAAGUCCCGUACGGAACG [U19C G50A G56A]
condition met

Param item: GGUCCGUUGGCGUAAUGGUAACGCGUCUCCCUCCUAAGGAGAAGCCUGCGGGUUCGAGUCCCGUACGGAACG [U2G A45C]
condition met

Param item: GUCCCGUUGGCGUAAUGGUAACGCGUGACCCUCCUAAGGAGAAGACUGCGGGUUCGAGUCCCGUACGGAACG [U3C C27G U28A]
condition not met

Param item: GUUCCGUUGGCGUAAUGGCCACGAGUCUCCCUCCUAAGGAGAAGACUGCGGGUUCAAGUCCCGUACGGAACG [U19C A20C C24A G56A]
condition not met

Param item: GUACCGUUGGCGUAAUGGUAACGCGUCUCUCUCCUAAGGAGAAGACUGCGGGUUCGAGUCCCGUACGGAACG [U3A C30U]
condition met

Param item: GUUCCGUUGGCGAAAUGGUAACCCGUGUCCCUCCUAAGGAGAAGACUGCGGGCUCGAGUCACGUACGGAACG [U13A G23C C27G U53C C61A]
condition not met

Param item: GUUCCGUUGGCGUAAUGGUAAGGCGUCUCCCUCCUAAGGAGGAGACUGCGGGUUCGAGUACCGUACGGAACG [C22G A42G C60A]
condition not met

Param item: GUUCCGUUGGGGUAACGGUAAUGCGUCUCCCUCCUAAGGAGAAGACUGCGGGUUCGAGUCCCGUACGUAACG [C11G U16C C22U G68U]
condition not met

Param item: GUUCCGUUGGCGUAAUGGUAACGCGUCUCCCUCUUAAGGAGAAGACUGCGGGUUCGCGUCCCGUACGGCACG [C34U A57C A69C]
condition met

Param item: GUUCAGUUGGCGUAAUGGUAACGCGUCUCCCUCCUAAGGCGAAGACUGCGGGUUCGAGUCCCGUACGGAACG [C5A A40C]
condition met
